- Test system: Colo320 human colon adenocarcinoma cell line (doxorubicin-resistant)
- assayMethodText: MTT assay, cytotoxicity at pH 6 and 7
- Assay type: cell-based
- statedConditions: Colo320; pH 6; 72 h incubation; read-out: IC50
pIC50: −log10 of the molar value.
Items are presented alongside their recorded pIC50.

compound: CC1=C(C)C(C)C(C)=C1C.Cn1ccnc1.Oc1cccc2cccnc12.[Rh+3] [[RhCp*(8HQH−1)(mim)]^+]
valueComparator: =
pIC50: 5.22
--
compound: Cc1c(C)c(C)[c-](C)c1C.[Cl-].[Cl-].[Rh+3].c1cnc2c(c1)ccc1cccnc12 [[RhCp*(phen)Cl]Cl]
valueComparator: <
pIC50: 4.00
--
compound: Cc1c(C)c(C)[c-](C)c1C.[Cl][Rh+][O]c1cccc2cccnc12 [[RhCp*(8HQH−1)Cl]]
valueComparator: =
pIC50: 5.21
--
compound: CC1=C(C)C(C)C(C)=C1C.[Rh+3].c1ccncc1.c1cnc2c(c1)ccc1cccnc12 [[RhCp*(phen)(Py)]^2+]
valueComparator: =
pIC50: 4.08
